Below is a list of entries, each paired with its recorded remaining activity at 1 µM value.
Target: TYRO3 (Homo sapiens, UniProt Q06418)
Construct: purchased Eurofins Discovery (Kinase Profiler service)
Sequence (Q06418 41-890): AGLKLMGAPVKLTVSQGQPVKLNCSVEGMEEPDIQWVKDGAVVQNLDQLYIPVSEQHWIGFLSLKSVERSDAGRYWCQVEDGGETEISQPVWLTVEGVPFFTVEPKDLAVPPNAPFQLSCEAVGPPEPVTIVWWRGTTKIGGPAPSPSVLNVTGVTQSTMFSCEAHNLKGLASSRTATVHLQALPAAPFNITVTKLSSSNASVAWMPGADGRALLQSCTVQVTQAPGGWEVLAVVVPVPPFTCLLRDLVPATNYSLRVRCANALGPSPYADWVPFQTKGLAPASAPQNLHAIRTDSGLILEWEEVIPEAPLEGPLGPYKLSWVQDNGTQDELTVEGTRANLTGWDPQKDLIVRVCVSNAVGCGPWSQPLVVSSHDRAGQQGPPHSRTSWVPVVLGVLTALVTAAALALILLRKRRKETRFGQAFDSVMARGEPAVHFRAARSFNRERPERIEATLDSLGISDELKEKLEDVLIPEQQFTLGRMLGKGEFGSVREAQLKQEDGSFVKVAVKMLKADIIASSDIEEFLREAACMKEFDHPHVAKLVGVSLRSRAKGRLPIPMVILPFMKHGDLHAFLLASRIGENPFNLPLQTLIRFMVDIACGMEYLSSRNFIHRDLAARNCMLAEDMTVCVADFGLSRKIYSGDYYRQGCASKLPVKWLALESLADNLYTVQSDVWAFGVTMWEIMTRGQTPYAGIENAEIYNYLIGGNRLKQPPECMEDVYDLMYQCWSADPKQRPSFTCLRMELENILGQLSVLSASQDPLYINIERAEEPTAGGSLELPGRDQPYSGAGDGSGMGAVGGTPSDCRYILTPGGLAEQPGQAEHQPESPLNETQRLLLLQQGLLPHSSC
Assay: Filter-binding radiometric kinase activity assay (KinaseProfiler, Eurofins)
Type: biochemical
Conditions: 1 µM compound; read-out: % Residual enzymatic activity at 1 µM TYRO3

{"compound-string": "Nc1ncnc(Sc2ccc(NC(=O)c3cccn(-c4ccc(F)cc4)c3=O)cc2F)c1Cl", "remaining activity at 1 µM (%)": 52}
{"compound-string": "CCOc1ccn(-c2ccc(F)cc2)c(=O)c1C(=O)Nc1ccc(Oc2ncnc(N)c2Cl)c(F)c1", "remaining activity at 1 µM (%)": 0}
{"compound-string": "Nc1ncnc(Oc2ccc(NC(=O)c3cccn(-c4ccc(F)cc4)c3=O)cc2F)c1Cl", "remaining activity at 1 µM (%)": 0}
{"compound-string": "Nc1ncnc(Oc2ccc(NC(=O)c3cccn(-c4ccc(F)cc4)c3=O)c(F)c2)c1F", "remaining activity at 1 µM (%)": 5}
{"compound-string": "Nc1ncnc(Oc2ccc(NC(=O)c3cccn(-c4ccc(F)cc4)c3=O)c(F)c2F)c1Cl", "remaining activity at 1 µM (%)": 87}
{"compound-string": "Nc1ncnc(Oc2ccc(NC(=O)c3cccn(-c4ccc(OC(F)(F)F)cc4)c3=O)cc2F)c1F", "remaining activity at 1 µM (%)": 111}
{"compound-string": "Cc1ccc(-n2cccc(C(=O)Nc3ccc(Oc4ncnc(N)c4F)c(F)c3)c2=O)cc1", "remaining activity at 1 µM (%)": 14}
{"compound-string": "Nc1ncnc(Oc2cc(F)c(NC(=O)c3cccn(-c4ccc(F)cc4)c3=O)cc2F)c1F", "remaining activity at 1 µM (%)": 2}

====

Molecular target: AXL (Homo sapiens)
Construct: purchased Eurofins Discovery (Kinase Profiler service)
Sequence (P30530 26-894): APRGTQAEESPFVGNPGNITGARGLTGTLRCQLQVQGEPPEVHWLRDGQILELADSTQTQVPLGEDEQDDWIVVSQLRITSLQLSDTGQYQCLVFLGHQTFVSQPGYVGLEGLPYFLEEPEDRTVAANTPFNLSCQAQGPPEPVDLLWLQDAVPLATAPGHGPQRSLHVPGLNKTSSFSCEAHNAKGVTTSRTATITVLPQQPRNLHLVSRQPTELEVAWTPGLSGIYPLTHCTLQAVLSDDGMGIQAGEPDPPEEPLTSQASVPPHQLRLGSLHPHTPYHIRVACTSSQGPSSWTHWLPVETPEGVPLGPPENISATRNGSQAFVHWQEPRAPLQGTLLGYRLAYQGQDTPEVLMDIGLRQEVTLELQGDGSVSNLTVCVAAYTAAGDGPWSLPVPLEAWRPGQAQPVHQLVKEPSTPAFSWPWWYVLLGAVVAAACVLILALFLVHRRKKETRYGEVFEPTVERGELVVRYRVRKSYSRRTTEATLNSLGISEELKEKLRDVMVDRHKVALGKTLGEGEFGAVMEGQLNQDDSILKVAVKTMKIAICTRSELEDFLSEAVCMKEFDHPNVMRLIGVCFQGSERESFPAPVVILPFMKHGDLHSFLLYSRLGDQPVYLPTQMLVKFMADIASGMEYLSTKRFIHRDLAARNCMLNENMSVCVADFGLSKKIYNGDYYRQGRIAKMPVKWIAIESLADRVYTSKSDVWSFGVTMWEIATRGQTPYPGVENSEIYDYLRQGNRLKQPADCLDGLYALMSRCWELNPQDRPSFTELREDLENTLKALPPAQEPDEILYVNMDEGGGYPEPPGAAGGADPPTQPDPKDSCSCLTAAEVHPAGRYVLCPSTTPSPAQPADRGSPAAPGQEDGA
Assay: Filter-binding radiometric kinase activity assay (KinaseProfiler, Eurofins)
Assay type: biochemical
Settings: 1 µM compound; read-out: % Residual enzymatic activity at 1 µM AXL
Catalogue of compounds with associated remaining activity at 1 µM
test-readout: remaining activity at 1 µM (%)

{"compound-string": "Nc1ncnc(Oc2ccc(NC(=O)c3cccn(-c4ccc(OC(F)(F)F)cc4)c3=O)cc2F)c1F", "test-readout": "remaining activity at 1 µM", "units-label": "%", "recorded-measurement": 112}
{"compound-string": "Nc1ncnc(Oc2ccc(NC(=O)c3cccn(-c4ccc(Cl)cc4)c3=O)cc2F)c1F", "test-readout": "remaining activity at 1 µM", "units-label": "%", "recorded-measurement": 50}
{"compound-string": "Nc1ncnc(Oc2ccc(NC(=O)c3cccn(-c4ccc(F)cc4)c3=O)c(Cl)c2)c1Cl", "test-readout": "remaining activity at 1 µM", "units-label": "%", "recorded-measurement": 78}
{"compound-string": "Nc1ncc(Cl)c(Oc2ccc(NC(=O)c3cccn(-c4ccc(F)cc4)c3=O)c(F)c2)n1", "test-readout": "remaining activity at 1 µM", "units-label": "%", "recorded-measurement": 92}
{"compound-string": "Nc1ncnc(Oc2ccc(NC(=O)c3cccn(-c4ccc(Cl)cc4)c3=O)c(F)c2)c1Cl", "test-readout": "remaining activity at 1 µM", "units-label": "%", "recorded-measurement": 23}
{"compound-string": "Nc1ncnc(Sc2ccc(NC(=O)c3cccn(-c4ccc(F)cc4)c3=O)cc2F)c1Cl", "test-readout": "remaining activity at 1 µM", "units-label": "%", "recorded-measurement": 55}
{"compound-string": "Nc1ncnc(Oc2ccc(NC(=O)c3cccn(-c4ccc(F)cc4)c3=O)c(F)c2)c1Cl", "test-readout": "remaining activity at 1 µM", "units-label": "%", "recorded-measurement": -8}
{"compound-string": "Nc1ncnc(Oc2ccc(NC(=O)c3cccn(-c4ccc(F)cc4)c3=O)cc2Cl)c1Cl", "test-readout": "remaining activity at 1 µM", "units-label": "%", "recorded-measurement": 67}
{"compound-string": "Nc1ncnc(Oc2ccc(NC(=O)c3cccn(-c4ccc(F)cc4)c3=O)cc2Cl)c1F", "test-readout": "remaining activity at 1 µM", "units-label": "%", "recorded-measurement": 57}
{"compound-string": "Nc1ncnc(Oc2ccc(NC(=O)c3cccn(-c4ccc(F)cc4)c3=O)c(F)c2)c1F", "test-readout": "remaining activity at 1 µM", "units-label": "%", "recorded-measurement": 8}
{"compound-string": "Nc1ncnc(Sc2ccc(NC(=O)c3cccn(-c4ccc(F)cc4)c3=O)c(F)c2)c1Cl", "test-readout": "remaining activity at 1 µM", "units-label": "%", "recorded-measurement": 87}
{"compound-string": "Nc1ncnc(Sc2ccc(NC(=O)c3cccn(-c4ccc(F)cc4)c3=O)cc2F)c1F", "test-readout": "remaining activity at 1 µM", "units-label": "%", "recorded-measurement": 84}
{"compound-string": "Nc1ncnc(Oc2ccc(NC(=O)c3cccn(-c4ccc(F)cc4)c3=O)cc2)c1Cl", "test-readout": "remaining activity at 1 µM", "units-label": "%", "recorded-measurement": -1}
{"compound-string": "Nc1ncnc(Oc2cc(F)c(NC(=O)c3cccn(-c4ccc(F)cc4)c3=O)cc2F)c1F", "test-readout": "remaining activity at 1 µM", "units-label": "%", "recorded-measurement": 31}
{"compound-string": "Nc1ncc(Cl)c(Oc2ccc(NC(=O)c3cccn(-c4ccc(F)cc4)c3=O)cc2F)n1", "test-readout": "remaining activity at 1 µM", "units-label": "%", "recorded-measurement": 99}
{"compound-string": "Nc1ncnc(Oc2ccc(NC(=O)c3cccn(-c4ccc(F)cc4)c3=O)cc2F)c1Cl", "test-readout": "remaining activity at 1 µM", "units-label": "%", "recorded-measurement": 4}
{"compound-string": "Nc1ncnc(Oc2ccc(NC(=O)c3cccn(-c4ccc(C(F)(F)F)cc4)c3=O)cc2F)c1F", "test-readout": "remaining activity at 1 µM", "units-label": "%", "recorded-measurement": 105}
{"compound-string": "Nc1ncnc(Nc2ccc(NC(=O)c3cccn(-c4ccc(F)cc4)c3=O)cc2F)c1Cl", "test-readout": "remaining activity at 1 µM", "units-label": "%", "recorded-measurement": 97}
{"compound-string": "Cc1ccc(-n2cccc(C(=O)Nc3ccc(Oc4ncnc(N)c4F)c(F)c3)c2=O)cc1", "test-readout": "remaining activity at 1 µM", "units-label": "%", "recorded-measurement": 70}
{"compound-string": "CCOc1ccn(-c2ccc(F)cc2)c(=O)c1C(=O)Nc1ccc(Oc2ncnc(N)c2Cl)c(F)c1", "test-readout": "remaining activity at 1 µM", "units-label": "%", "recorded-measurement": 2}
{"compound-string": "Nc1ncnc(Oc2cc(F)c(NC(=O)c3cccn(-c4ccc(F)cc4)c3=O)cc2F)c1Cl", "test-readout": "remaining activity at 1 µM", "units-label": "%", "recorded-measurement": 3}
{"compound-string": "Nc1ncnc(Oc2ccc(NC(=O)c3cccn(-c4ccc(F)cc4)c3=O)c(F)c2F)c1Cl", "test-readout": "remaining activity at 1 µM", "units-label": "%", "recorded-measurement": 67}
{"compound-string": "Nc1ncnc(Oc2ccc(NC(=O)c3cccn(-c4ccc(F)cc4)c3=O)c(Cl)c2)c1F", "test-readout": "remaining activity at 1 µM", "units-label": "%", "recorded-measurement": 69}
{"compound-string": "Cc1ccc(-n2cccc(C(=O)Nc3ccc(Oc4ncnc(N)c4Cl)cc3F)c2=O)cc1", "test-readout": "remaining activity at 1 µM", "units-label": "%", "recorded-measurement": 64}
{"compound-string": "Nc1ncnc(Oc2ccc(NC(=O)c3cccn(-c4ccc(F)cc4)c3=O)cc2F)c1F", "test-readout": "remaining activity at 1 µM", "units-label": "%", "recorded-measurement": 13}
{"compound-string": "Nc1ncnc(Oc2ccc(NC(=O)c3cccn(-c4ccc(F)cc4)c3=O)cc2)c1F", "test-readout": "remaining activity at 1 µM", "units-label": "%", "recorded-measurement": 14}
